experiment: Clearance in mouse at […]; format: ADME, organism-based; conditions: in vivo
Measured attribute: CL/F (mL/min/kg)
Express your answer in mL/min/kg, writing the number without its unit.

Inquiry: Quick one: CL/F of `C=CC(=O)N1CC(NC(=O)Cn2c(C3CC3)c(C(=O)N3CCc4c(cccc4OC)C3)c3cc(Cl)cc(C)c32)C1` ?
Reply text: 107

---

test system: GTPase KRas (Homo sapiens), P01116 [G12C]; assay: Inhibition of KRAS G12C mutant (unknown origin) at 10 uM incubated for 20 hrs in presence of GDP by rapidfire mass spectrometry analysis relative to control
Sequence (P01116 whole entry G12C): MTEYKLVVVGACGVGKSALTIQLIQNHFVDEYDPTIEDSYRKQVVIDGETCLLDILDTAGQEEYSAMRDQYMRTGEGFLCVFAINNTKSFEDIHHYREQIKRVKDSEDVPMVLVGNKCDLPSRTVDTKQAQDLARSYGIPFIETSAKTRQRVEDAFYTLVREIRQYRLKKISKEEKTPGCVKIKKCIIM
Measured attribute: inhibition (%)
Please respond with the number in % and leave the unit unwritten.

1. C=CC(=O)N1CC(NC(=O)Cn2c(C)c(C(=O)N3CCc4c(cccc4OC)C3)c3cc(Cl)ccc32)C1	100
2. C=CC(=O)N1CC(NC(=O)Cn2cc(C(=O)N(C)Cc3ccccc3)c3cc(Br)ccc32)C1	100
3. C=CC(=O)N1CC(NC(=O)Cn2cc(C(=O)N3CCc4ccccc4C3)c3cc(Br)ccc32)C1	100
4. C=CC(=O)N1CC(NC(=O)Cn2cc(C(=O)NCc3ccccc3)c3cc(Br)ccc32)C1	93

Inquiry: Field: inhibition (GTPase KRas (Homo sapiens), P01116 [G12C]). Entry: `C=CC(=O)N1CC(NC(=O)Cn2cc(C(=O)N3CCc4cc(Cl)ccc4C3)c3cc(Br)ccc32)C1`
Reply text: 100
